# Tested on: PC3
# Test protocol: MTT cell proliferation
# Test settings: read-out: IC50 (nM) PC3; Table II; 3-day exposure, media containing 10% FBS, MTT
Reported property: IC50 (nM)
Numbers only, in nM.

Entry under review: `CC[C@H]1CN2CCc3cc(OC)c(OC)cc3[C@@H]2C[C@@H]1C[C@@H]1c2cc(OC)c(OC)cc2CCN1C(=O)OCc1ccc(NC(=O)[C@@H]2CCCN2C(=O)[C@H](C)N)cc1` . Reported IC50?
37.2
